# Read-out: Interleukin-8 (IL8), CXCL8 (gene 3576)
# PROTOCOL DETAILS: BSK_LPS_IL8: BioMAP Diversity Plus: LPS Assay for Interleukin-8 (IL8) Biomarker Activity (AID 2283078)
# TEST CONTEXT: primary human HUVEC with PBMC; actives raise or lower the signal
Calls of active or inactive are those of the source. How the source made its calls: active means hit-call score of the fitted dose curve at least 0.9, where 1 is the maximum; inactive means score below 0.9.

[
  {
    "COMPOUND": "COc1cc(OC)nc(NC(=O)NS(=O)(=O)Nc2ccccc2C(=O)N(C)C)n1",
    "AC50": "0.055 µM (active)"
  },
  {
    "COMPOUND": "O=C(CC(=O)C(F)(F)C(F)(F)C(F)(F)F)c1cccs1",
    "AC50": "inactive"
  },
  {
    "COMPOUND": "Clc1ccc(Nc2nnc(Cc3ccncc3)c3ccccc23)cc1",
    "AC50": "inactive"
  },
  {
    "COMPOUND": "CC(C)(C)c1ccc(O)c(O)c1",
    "AC50": "30.6 µM (active)"
  },
  {
    "COMPOUND": "C=COC(=O)C(C)(C)CCCCCC",
    "AC50": "33.1 µM (active)"
  },
  {
    "COMPOUND": "Oc1ccc(Cc2ccccc2O)cc1",
    "AC50": "inactive"
  },
  {
    "COMPOUND": "CN(C)CCOC(c1ccccc1)c1ccccc1",
    "AC50": "inactive"
  },
  {
    "COMPOUND": "CS(=O)(=O)c1ccc([C@@H](CC2CCCC2)C(=O)Nc2cnccn2)cc1Cl",
    "AC50": "inactive"
  },
  {
    "COMPOUND": "O=P(O)(O)CCC(F)(F)C(F)(F)C(F)(F)C(F)(F)C(F)(F)C(F)(F)C(F)(F)C(F)(F)F",
    "AC50": "inactive"
  },
  {
    "COMPOUND": "O=C1OC2(c3ccccc31)c1cc(I)c(O)c(I)c1Oc1c2cc(I)c(O)c1I",
    "AC50": "inactive"
  },
  {
    "COMPOUND": "O=C(c1ccccc1)c1ccccc1",
    "AC50": "inactive"
  },
  {
    "COMPOUND": "CCCCc1oc2ccccc2c1C(=O)c1cc(I)c(OCCN(CC)CC)c(I)c1",
    "AC50": "25.9 µM (active)"
  },
  {
    "COMPOUND": "O=C(CCCN1CCC(O)(c2ccc(Cl)cc2)CC1)c1ccc(F)cc1",
    "AC50": "inactive"
  },
  {
    "COMPOUND": "CCCCCCCCCCCCCCC",
    "AC50": "inactive"
  },
  {
    "COMPOUND": "C=CC(=O)OCCC(F)(F)C(F)(F)C(F)(F)C(F)(F)C(F)(F)C(F)(F)C(F)(F)C(F)(F)F",
    "AC50": "inactive"
  },
  {
    "COMPOUND": "CCC(C)c1ccccc1O (stereo unspecified)",
    "AC50": "inactive"
  },
  {
    "COMPOUND": "CCOC(=O)CN[C@@H](C(=O)N1CC[C@H]1C(=O)NCc1ccc(/C(N)=N/O)cc1)C1CCCCC1",
    "AC50": "inactive"
  },
  {
    "COMPOUND": "O=C(NCc1ncc(C(F)(F)F)cc1Cl)c1c(Cl)cccc1Cl",
    "AC50": "inactive"
  },
  {
    "COMPOUND": "NC(=NCCCCCCN=C(N)/N=C(\\N)Nc1ccc(Cl)cc1)/N=C(\\N)Nc1ccc(Cl)cc1",
    "AC50": "2.36 µM (active)"
  },
  {
    "COMPOUND": "O=C(NO)c1ccccc1",
    "AC50": "inactive"
  },
  {
    "COMPOUND": "Oc1cc2ccccc2cc1O",
    "AC50": "inactive"
  }
]

###

# PROTOCOL DETAILS: CCTE_Shafer_MEA_acute_spike_number: CCTE's Neural Acute Assay for Total Number of Spikes, Shafer Lab (AID 2284008)
The source made the active and inactive calls. How the source made its calls: active means hit-call score of the fitted dose curve at least 0.9, where 1 is the maximum; inactive means score below 0.9.
Outcomes: Yes = active, No = inactive

[
  {
    "COMPOUND": "Oc1ccc(Cc2ccccc2O)cc1",
    "GROUP LABEL": "Yes"
  },
  {
    "COMPOUND": "N=C(N)c1ccc(OCCCCCOc2ccc(C(=N)N)cc2)cc1",
    "GROUP LABEL": "No"
  },
  {
    "COMPOUND": "Oc1c(Cl)cc(Cl)cc1Sc1cc(Cl)cc(Cl)c1O",
    "GROUP LABEL": "No"
  },
  {
    "COMPOUND": "CCC(C)c1ccccc1O (configuration not stated)",
    "GROUP LABEL": "Yes"
  },
  {
    "COMPOUND": "OCC(CO)(CBr)CBr",
    "GROUP LABEL": "No"
  },
  {
    "COMPOUND": "CCCCC=O",
    "GROUP LABEL": "No"
  },
  {
    "COMPOUND": "O=C1NS(=O)(=O)c2ccccc21",
    "GROUP LABEL": "Yes"
  },
  {
    "COMPOUND": "CC(=O)Nc1ccc(O)cc1",
    "GROUP LABEL": "No"
  },
  {
    "COMPOUND": "CN(C)CCOC(c1ccccc1)c1ccccc1",
    "GROUP LABEL": "Yes"
  },
  {
    "COMPOUND": "CCCCCCCCCCCC",
    "GROUP LABEL": "No"
  },
  {
    "COMPOUND": "O=C(CCCN1CCC(O)(c2ccc(Cl)cc2)CC1)c1ccc(F)cc1",
    "GROUP LABEL": "Yes"
  },
  {
    "COMPOUND": "CCCCc1oc2ccccc2c1C(=O)c1cc(I)c(OCCN(CC)CC)c(I)c1",
    "GROUP LABEL": "Yes"
  }
]

###

# Read-out: Monocyte Chemoattractant Protein-1 (MCP1), CCL2 (gene 6347)
# PROTOCOL DETAILS: BSK_SAg_MCP1: BioMAP Diversity Plus: SAg Assay for Monocyte Chemoattractant Protein-1 (MCP1) Biomarker Activity (AID 2283090)
# TEST CONTEXT: primary human HUVEC with PBMC; actives raise or lower the signal
Activity calls are given as the source filed them. How the source made its calls: active means hit-call score of the fitted dose curve at least 0.9, where 1 is the maximum; inactive means score below 0.9.
Outcomes: Y for active, N for inactive

[
  {
    "COMPOUND": "N=C(N)c1ccc(OCCCCCOc2ccc(C(=N)N)cc2)cc1",
    "GROUP LABEL": "N"
  },
  {
    "COMPOUND": "OCC(CO)(CBr)CBr",
    "GROUP LABEL": "N"
  },
  {
    "COMPOUND": "OCCN1CN(CCO)CN(CCO)C1",
    "GROUP LABEL": "Y"
  },
  {
    "COMPOUND": "CCC(C)c1ccccc1O (stereo not drawn)",
    "GROUP LABEL": "N"
  },
  {
    "COMPOUND": "O=C(CCCN1CCC(O)(c2ccc(Cl)cc2)CC1)c1ccc(F)cc1",
    "GROUP LABEL": "N"
  },
  {
    "COMPOUND": "COc1cccc(O)c1",
    "GROUP LABEL": "N"
  },
  {
    "COMPOUND": "CC(C)(C)c1ccc(O)c(O)c1",
    "GROUP LABEL": "Y"
  },
  {
    "COMPOUND": "C=COC(=O)C(C)(C)CCCCCC",
    "GROUP LABEL": "Y"
  }
]

###

# EXPERIMENTAL TARGET: Transcriptional activator Myb (Homo sapiens)
# PROTOCOL DETAILS: ATG_Myb_CIS: Attagene CIS-FACTORIAL HepG2 Assay for human Myeloblastosis (Myb) Proto-Oncogene Transcription Factor (AID 2282986)
# TEST CONTEXT: HepG2 Attagene CIS-FACTORIAL Myb reporter transcription; actives raise or lower the signal
The source made the active and inactive calls. Rule for the calls: active = hit-call score of the fitted dose curve at least 0.9, where 1 is the maximum; inactive = score below 0.9.
Outcomes: active, inactive

[
  {
    "COMPOUND": "COc1ccccc1NC(=O)c1cc2ccccc2cc1O",
    "GROUP LABEL": "active"
  },
  {
    "COMPOUND": "CCCCCCCCCCCCCC[n+]1ccccc1",
    "GROUP LABEL": "inactive"
  },
  {
    "COMPOUND": "c1ccc2c(c1)CCC2",
    "GROUP LABEL": "inactive"
  },
  {
    "COMPOUND": "CCCCCCCCCCCCCCC",
    "GROUP LABEL": "inactive"
  },
  {
    "COMPOUND": "O=C(F)C(F)(F)C(F)(F)C(F)(F)C(=O)F",
    "GROUP LABEL": "inactive"
  },
  {
    "COMPOUND": "CC(C)C=O",
    "GROUP LABEL": "inactive"
  },
  {
    "COMPOUND": "Cc1ccc2ccc3ccc(C)cc3c2c1",
    "GROUP LABEL": "inactive"
  },
  {
    "COMPOUND": "CC1CNCC(C)O1 (centres undefined)",
    "GROUP LABEL": "inactive"
  },
  {
    "COMPOUND": "FC(F)(F)N1C(F)(F)C(F)(F)OC(F)(F)C1(F)F",
    "GROUP LABEL": "inactive"
  },
  {
    "COMPOUND": "CCC(=O)C=Cc1ccc(OC)cc1",
    "GROUP LABEL": "active"
  },
  {
    "COMPOUND": "O=C(CCCN1CCC(O)(c2ccc(Cl)cc2)CC1)c1ccc(F)cc1",
    "GROUP LABEL": "inactive"
  },
  {
    "COMPOUND": "O=CC(F)(F)C(F)(F)C(F)(F)C(F)F",
    "GROUP LABEL": "inactive"
  },
  {
    "COMPOUND": "CCOC(=O)c1nc(C(Cl)(Cl)Cl)n(-c2ccc(Cl)cc2Cl)n1",
    "GROUP LABEL": "inactive"
  },
  {
    "COMPOUND": "O=C(O)CN(CCCN(CC(=O)O)CC(=O)O)CC(=O)O",
    "GROUP LABEL": "inactive"
  },
  {
    "COMPOUND": "FC(F)(F)C1(F)C(F)(F)C(F)(F)C(F)(F)C1(F)F",
    "GROUP LABEL": "inactive"
  },
  {
    "COMPOUND": "CCCCC(CC)C(=O)O (centres undefined)",
    "GROUP LABEL": "inactive"
  },
  {
    "COMPOUND": "C/C=C/C(=O)C1=C(C)CCCC1(C)C",
    "GROUP LABEL": "inactive"
  },
  {
    "COMPOUND": "COC(=O)C(F)(F)C(F)(F)C(F)(F)F",
    "GROUP LABEL": "inactive"
  },
  {
    "COMPOUND": "OCC(CO)(CBr)CBr",
    "GROUP LABEL": "inactive"
  },
  {
    "COMPOUND": "Cc1ccc(C(=O)c2ccccc2)cc1",
    "GROUP LABEL": "inactive"
  },
  {
    "COMPOUND": "CCCCCCCCCCCCCCCCCC[N+](C)(C)Cc1ccccc1",
    "GROUP LABEL": "inactive"
  },
  {
    "COMPOUND": "O=C(C=C(O)C(F)(F)F)C(F)(F)F",
    "GROUP LABEL": "inactive"
  },
  {
    "COMPOUND": "O=C1c2ccc(O)c(O)c2C(=O)c2c(O)ccc(O)c21",
    "GROUP LABEL": "inactive"
  },
  {
    "COMPOUND": "Cc1ccc(C)c(S(=O)(=O)O)c1",
    "GROUP LABEL": "inactive"
  },
  {
    "COMPOUND": "CC(C)(O)C(=O)c1ccccc1",
    "GROUP LABEL": "inactive"
  },
  {
    "COMPOUND": "CCCCc1ccc2ccccc2c1S(=O)(=O)O",
    "GROUP LABEL": "inactive"
  },
  {
    "COMPOUND": "OCCN1CN(CCO)CN(CCO)C1",
    "GROUP LABEL": "inactive"
  },
  {
    "COMPOUND": "CCCCCCC(C)(C)C(=O)O",
    "GROUP LABEL": "inactive"
  },
  {
    "COMPOUND": "N=C(N)c1ccc(OCCCCCOc2ccc(C(=N)N)cc2)cc1",
    "GROUP LABEL": "inactive"
  }
]
